src = paper PMC4336329

Study system: human ether-à-go-go-related gene (hERG) potassium channel (human);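 also: peak tail current of the secondary pulse compared with the same well before compound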
Sequence (Q12809 whole entry, looked up): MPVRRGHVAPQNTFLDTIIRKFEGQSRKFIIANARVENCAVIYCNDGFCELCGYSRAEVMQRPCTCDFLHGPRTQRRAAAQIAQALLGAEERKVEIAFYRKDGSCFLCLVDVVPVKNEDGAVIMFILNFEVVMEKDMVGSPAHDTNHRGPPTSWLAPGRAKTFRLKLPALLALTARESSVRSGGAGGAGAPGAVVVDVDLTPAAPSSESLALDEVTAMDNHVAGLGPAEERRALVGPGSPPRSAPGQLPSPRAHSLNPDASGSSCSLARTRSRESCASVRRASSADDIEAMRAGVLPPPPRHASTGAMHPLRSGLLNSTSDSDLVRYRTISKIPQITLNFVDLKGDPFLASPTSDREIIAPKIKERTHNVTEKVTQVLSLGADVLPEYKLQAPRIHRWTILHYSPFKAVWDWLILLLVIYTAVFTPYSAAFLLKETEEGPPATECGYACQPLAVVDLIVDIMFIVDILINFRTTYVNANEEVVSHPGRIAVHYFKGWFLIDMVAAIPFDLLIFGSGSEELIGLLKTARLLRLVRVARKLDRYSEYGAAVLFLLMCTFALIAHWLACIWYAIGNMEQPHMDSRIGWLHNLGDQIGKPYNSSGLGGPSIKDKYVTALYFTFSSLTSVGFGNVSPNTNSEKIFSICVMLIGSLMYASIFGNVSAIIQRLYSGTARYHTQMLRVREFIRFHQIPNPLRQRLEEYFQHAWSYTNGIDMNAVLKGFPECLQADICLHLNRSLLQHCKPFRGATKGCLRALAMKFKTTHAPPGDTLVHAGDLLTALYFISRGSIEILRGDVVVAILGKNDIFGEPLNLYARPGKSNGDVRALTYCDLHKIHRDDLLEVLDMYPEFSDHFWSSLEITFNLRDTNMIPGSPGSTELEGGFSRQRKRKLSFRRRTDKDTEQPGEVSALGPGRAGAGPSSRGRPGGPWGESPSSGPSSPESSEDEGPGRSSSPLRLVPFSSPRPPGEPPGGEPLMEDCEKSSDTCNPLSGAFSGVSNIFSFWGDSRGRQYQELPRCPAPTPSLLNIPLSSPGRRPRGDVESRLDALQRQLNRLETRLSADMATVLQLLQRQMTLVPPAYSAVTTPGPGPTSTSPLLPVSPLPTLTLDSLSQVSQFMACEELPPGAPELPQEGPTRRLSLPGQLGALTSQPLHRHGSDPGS
Assay procedure: primary screen, population patch clamp on CHO cells stably expressing hERG; higher = less effect of the substance
The whole screen tested about 310,000 compounds, of which about 14,000 (4.5%) showed an effect of 50% or more. The effect is printed as a negative number. Shown is part of a subset that was picked to be rich in strong results.
Readout name: hERG current change (%, negative = inhibition) at 10uM (%)

>  <Compound>
COCCn1cc(C(=O)NCc2ccco2)c2c3ccccc3n(C)c2c1=O

>  <Number>
-20.6

$$$$
>  <Compound>
CCOC(=O)c1[nH]ncc1CN1CCCC(C(=O)c2cccc(Cl)c2)C1 (stereo not shown)

>  <Number>
-22.6

$$$$
>  <Compound>
O=C(C1CC1)N1CCc2cc(Br)cc(S(=O)(=O)N3CCCCCC3)c21

>  <Number>
-16.5

$$$$
>  <Compound>
O=C(Nc1ccc(CN2CCCCC2)cc1)c1cccc(Br)c1

>  <Number>
-86.7

$$$$
>  <Compound>
CCn1cc(/C=N\NC(=O)Cc2ccc([N+](=O)[O-])cc2)c(C)n1

>  <Number>
-25.1

$$$$
>  <Compound>
Cc1ccc(C(=O)N/C(=C\c2ccc(F)cc2)C(=O)NCCN2CCOCC2)cc1

>  <Number>
-75.6

$$$$
>  <Compound>
CC1(C)C(=O)N(c2ccccc2Cl)C(=O)c2ccccc21

>  <Number>
-18.2

$$$$
>  <Compound>
Cc1cc2ccccc2c(=O)n1CC(=O)NCc1ccco1

>  <Number>
13.8

$$$$
>  <Compound>
O=C(NC(=S)NCCN1CCOCC1)c1ccc(F)cc1

>  <Number>
-4.01

$$$$
>  <Compound>
COc1ccc(S(=O)(=O)N(CCC(=O)O)Cc2ccccc2)cc1

>  <Number>
13.7

$$$$
>  <Compound>
C=CCN(c1ccccc1)S(=O)(=O)c1ccc2c(c1)NC(=O)C(C)C(=O)N2 (stereo not shown)

>  <Number>
-4.47

$$$$
>  <Compound>
CCOc1ccc(NC(=O)c2ccc(CN3CCc4ccccc4C3)cc2)cc1

>  <Number>
0.805

$$$$
>  <Compound>
COC(=O)c1ccc(NS(=O)(=O)c2cc3c4c(c2)C(C)C(=O)N4CCC3)cc1 (stereo not shown)

>  <Number>
2.73

$$$$
>  <Compound>
CCOC(=O)c1[nH]ncc1CN1CCCC(C(=O)c2ccc(C(C)(C)C)cc2)C1 (stereo not shown)

>  <Number>
-17.6

$$$$
>  <Compound>
Cc1ccc2nc3c(cc(C(=O)NCc4ccco4)c(=N)n3Cc3ccco3)c(=O)n2c1

>  <Number>
-77

$$$$
>  <Compound>
CN(C)S(=O)(=O)N1CCN(C(=O)c2ccccc2)CC1

>  <Number>
8.25

$$$$
